Target: UniProt P29274
Ki values by entry

[
  {
    "Substance Smiles": "CCn1c(=O)[nH]c2sc(/C=C/c3ccc(C(F)(F)F)cc3)c(C)c2c1=O",
    "Assay Target": "UniProt P29274",
    "Ki / µM": 0.674
  },
  {
    "Substance Smiles": "CCn1c(=O)[nH]c2sc(/C=C/c3ccc(F)cc3)c(C)c2c1=O",
    "Assay Target": "UniProt P29274",
    "Ki / µM": 0.189
  },
  {
    "Substance Smiles": "CCn1c(=O)c2c(C)c(/C=C/c3ccc(OC)c(OC)c3)sc2n(C)c1=O",
    "Assay Target": "UniProt P29274",
    "Ki / µM": 0.22
  },
  {
    "Substance Smiles": "CCn1c(=O)[nH]c2sc(/C=C/c3cc(OC)cc(OC)c3)c(C)c2c1=O",
    "Assay Target": "UniProt P29274",
    "Ki / µM": 0.096
  },
  {
    "Substance Smiles": "CCn1c(=O)[nH]c2sc(/C=C/c3ccc(OC)cc3)c(C)c2c1=O",
    "Assay Target": "UniProt P29274",
    "Ki / µM": 0.119
  },
  {
    "Substance Smiles": "C#CCn1c(=O)c2c(C)c(/C=C/c3ccccc3)sc2n(C)c1=O",
    "Assay Target": "UniProt P29274",
    "Ki / µM": 0.39
  },
  {
    "Substance Smiles": "CCn1c(=O)[nH]c2sc(/C=C/c3ccc(C)cc3)c(C)c2c1=O",
    "Assay Target": "UniProt P29274",
    "Ki / µM": 0.182
  }
]
